target: Ory c 3 (Oryctolagus cuniculus, UniProt Q9GK63+Q9GK67); assay: Fluorochrome binding to Ory c 3 (emission spectra and titration); details: 5 μM Ory c 3; one-site specific binding; read-out: Fluorochrome dissociation constant Kd
Sequence (Q9GK67 entry or part of it): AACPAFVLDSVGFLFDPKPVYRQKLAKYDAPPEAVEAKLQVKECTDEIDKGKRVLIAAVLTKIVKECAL
Sequence (Q9GK63 entry or part of it): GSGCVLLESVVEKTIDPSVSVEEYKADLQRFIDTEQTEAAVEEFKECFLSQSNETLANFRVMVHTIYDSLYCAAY
Measurement Kind: Kd

## Task Which value of Kd has been reported for Nc1cccc2cc3ccccc3cc12 [1-AMA, 1-aminoanthracene] in the records?
## Result 9 µM

---

target: Cav p 1.0201 (Cavia porcellus, UniProt A0A484HRI4); assay: Fluorochrome binding to Cav p 1.0201 (emission spectra and titration); settings: 5 μM Cav p 1.0201; one-site specific binding; read-out: Fluorochrome dissociation constant Kd
Sequence (A0A484HRI4 entry or part of it): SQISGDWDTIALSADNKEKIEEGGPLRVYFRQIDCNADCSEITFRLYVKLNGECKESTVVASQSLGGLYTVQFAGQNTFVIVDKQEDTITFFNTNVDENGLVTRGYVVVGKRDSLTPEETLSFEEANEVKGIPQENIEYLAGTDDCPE
Measurement Kind: Kd (µM)
Number only, in µM; omit the unit.

## Task Consider the compound Nc1cccc2cc3ccccc3cc12 [1-AMA, 1-aminoanthracene] and give its measured Kd.
## Result 13.9

---

Consider the following molecules; for each one, report its inhibition at 50 µM.
Molecular target: Cav p 1.0101 (Cavia porcellus, UniProt A0A484HM70, S19A)
Sequence (A0A484HM70 entry or part of it S19A): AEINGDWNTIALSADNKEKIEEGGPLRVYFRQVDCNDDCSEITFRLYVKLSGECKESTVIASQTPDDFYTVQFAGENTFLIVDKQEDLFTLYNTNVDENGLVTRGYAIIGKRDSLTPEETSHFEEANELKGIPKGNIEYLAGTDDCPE
Experiment: Competitive fluorescence-quenching assay, Cav p 1.0101
Type: binding, guinea pig
Details: 5 μM Cav p 1.0101-1-AMA complex, 50 μM ligand, n = 2
Procedure: Fluorescence quenching assays were performed as previously described ([45]), with modifications. […] Stock solutions were prepared at a concentration of 10 mM in 100% ethanol for the fluorochromes 1-aminoanthracene (1-AMA), 8-anilino-1-naphthalensulfonic acid (1,8-ANS) and for all ligands, and in 100% methanol for n-phenyl-1-naphthylamine (1-NPN), respectively. […] Fluorescence emission spectra were recorded in 5 nm steps between 420 and 560 nm for 1-AMA and 1,8-ANS and between 380 and 500 nm for 1-NPN. […]
Answer format: numeric, % implied, no suffix.

## Task May I ask what inhibition at 50 µM has been recorded for `CCCCCCCCCCO` ?
## Result 99

## Task Try `CCCCCCCCCCCCO` next.
## Result 98.9

## Task Also, `CCCc1ccc(O)cc1` please.
## Result 65.7

## Task What do you get for `CC(C)=CCC/C(C)=C/CC/C(C)=C/CO` ?
## Result 98.9

## Task Query `CCCCCCCCO` next
## Result 86.7

## Task Please give the result for `CC(C)c1cccc(O)c1` too.
## Result 55.3

## Task Param item: CC(C)CCCC(C)CCO (stereo not shown)
## Result 96.4

---

molecular target: Can f 1 (Canis lupus familiaris); assay: Fluorochrome binding to Can f 1 (emission spectra and titration); settings: 5 μM Can f 1; one-site specific binding; read-out: Fluorochrome dissociation constant Kd
Sequence (O18873 19-174): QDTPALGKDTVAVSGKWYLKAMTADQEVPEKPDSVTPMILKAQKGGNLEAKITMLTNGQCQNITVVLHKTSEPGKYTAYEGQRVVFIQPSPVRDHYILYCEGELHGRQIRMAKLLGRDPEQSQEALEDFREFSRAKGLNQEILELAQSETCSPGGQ
Measurement Kind: pKd
Note on pKd: it is the negative log10 of concentration, concentration in mol/L.

## Task # pKd lookup, item O=S(=O)(O)c1cccc2cccc(Nc3ccccc3)c12 [1,8-ANS, 8-anilino-1-naphthalensulfonic acid]
## Result 5.17

---

biological target: Cav p 1.0201 (Cavia porcellus, UniProt A0A484HRI4); assay: Fluorochrome binding to Cav p 1.0201 (emission spectra and titration); conditions: 5 μM Cav p 1.0201; read-out: EC50 fluorochrome concentration
Measurement Kind: EC50 (µM)
Give the number; µM is assumed, so skip it.

## Task Record request: EC50 value, item Nc1cccc2cc3ccccc3cc12 [1-AMA, 1-aminoanthracene]
## Result 9.2

---

biological target: Fel d 1 (Felis catus, UniProt P30438+P30440); construct: polyhistidine tag (C); made in house; host or cells: E. coli Rosetta-gami 2; experiment: Fluorochrome binding to Fel d 1 (emission spectra and titration); parameters: species or system cat; details: 5 μM Fel d 1; read-out: EC50 fluorochrome concentration
Sequence (P30438+P30440 fused): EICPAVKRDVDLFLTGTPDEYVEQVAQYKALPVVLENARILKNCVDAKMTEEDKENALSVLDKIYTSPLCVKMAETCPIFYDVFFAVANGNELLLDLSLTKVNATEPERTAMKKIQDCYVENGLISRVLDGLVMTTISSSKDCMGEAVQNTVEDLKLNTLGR
Measurement Kind: pEC50
# pEC50: negative log10 of molar concentration; output just the value

## Task Looking for the measured pEC50 of O=S(=O)(O)c1cccc2cccc(Nc3ccccc3)c12 [1,8-ANS, 8-anilino-1-naphthalensulfonic acid] , can you help?
## Result 4.00

---

target: human LCN1 (Homo sapiens, UniProt P31025)
Sequence (P31025 19-176): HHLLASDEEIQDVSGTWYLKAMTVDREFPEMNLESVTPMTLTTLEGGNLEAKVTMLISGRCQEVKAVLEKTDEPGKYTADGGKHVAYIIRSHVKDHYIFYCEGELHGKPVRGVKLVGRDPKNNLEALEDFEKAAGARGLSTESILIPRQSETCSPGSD
Measurement Kind: Ki (µM)
// note: answer is a bare numeric in µM

## Task Recorded Ki of `CCCCC/C=C\C/C=C\C/C=C\C/C=C\CCCC(=O)O` , please.
## Result 1.9

## Task Param item: `CCCCCCCCCCCCCC(=O)O`
## Result 1.8

---

target: human LCN1 (Homo sapiens, UniProt P31025); test: Fluorochrome binding to LCN1 (emission spectra and titration); settings: 5 μM LCN1; read-out: EC50 fluorochrome concentration
Measurement Kind: pEC50
# pEC50 is unitless: minus log10 of the molar concentration; print number only

## Task Find the recorded pEC50 belonging to O=S(=O)(O)c1cccc2cccc(Nc3ccccc3)c12 [1,8-ANS, 8-anilino-1-naphthalensulfonic acid] and report it.
## Result 5.15

---

target: Fel d 1 (Felis catus, UniProt P30438+P30440); construct: polyhistidine tag (C); made in house; host or cells: E. coli Rosetta-gami 2; experiment: Fluorochrome binding to Fel d 1 (emission spectra and titration); set-up: species or system cat
Measurement Kind: Kd
In your response, put the unit directly after the numeric value.

## Task For the molecule `c1ccc(Nc2cccc3ccccc23)cc1` , what Kd is on record?
## Result 35.5 µM

---

Target: Fel d 1 (Felis catus, UniProt P30438+P30440)
Construct: polyhistidine tag (C); made in house; host or cells: E. coli Rosetta-gami 2
Experiment: Competitive fluorescence-quenching assay, Fel d 1
Assay type: binding, cat
Conditions: read-out: Mean fluorescence inhibition, 5 μM Fel d 1 + 1,8-ANS complex, 100 μM ligand
Description: Fluorescence quenching assays were performed as previously described ([45]), with modifications. […] Stock solutions were prepared at a concentration of 10 mM in 100% ethanol for the fluorochromes 1-aminoanthracene (1-AMA), 8-anilino-1-naphthalensulfonic acid (1,8-ANS) and for all ligands, and in 100% methanol for n-phenyl-1-naphthylamine (1-NPN), respectively. […] Fluorescence emission spectra were recorded in 5 nm steps between 420 and 560 nm for 1-AMA and 1,8-ANS and between 380 and 500 nm for 1-NPN. […]
Measurement Kind: inhibition at 100 µM (%)
Quick reminder: number only, in %, skip the unit.

## Task Query (molecule): `CCCCCCCCCC(=O)O` ; field requested: inhibition at 100 µM
## Result 71.2

## Task Another molecule to look at: `CCCCCCCCCCO`
## Result 68.4

## Task Consider next the molecule `CCCc1ccc(O)cc1` in the same way.
## Result 52.8

## Task Could you do the same for `CCCCCCCCCCCC(=O)O` , please?
## Result 75.2

---

Please respond with reported Ki for every item in the list.
Molecular target: Can f 6 (Canis lupus familiaris)
Sequence (H2B3G5 16-190): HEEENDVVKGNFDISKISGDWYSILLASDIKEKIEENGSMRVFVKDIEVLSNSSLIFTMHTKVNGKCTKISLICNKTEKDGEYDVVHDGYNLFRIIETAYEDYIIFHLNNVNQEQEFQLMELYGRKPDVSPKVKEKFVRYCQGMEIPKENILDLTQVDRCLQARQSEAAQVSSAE
Expressed in µM, but write only the number.

## Task Look up Ki for this compound: `CCCCCCCCN`
## Result 273

## Task What would you report for `COc1nccnc1CC(C)C` ?
## Result 49.6

---

target: human LCN1 (Homo sapiens); construct: made in house; host or cells: E. coli Rosetta-gami 2(DE3); test: Fluorochrome binding to LCN1 (emission spectra and titration); conditions: 5 μM LCN1; multiple binding site analysis, second binding site; read-out: Fluorochrome dissociation constant Kd, second binding site
Measurement Kind: Kd (µM)
Unit µM implied. Number only.

## Task Name the reported Kd value associated with the molecule O=S(=O)(O)c1cccc2cccc(Nc3ccccc3)c12 [1,8-ANS, 8-anilino-1-naphthalensulfonic acid]
## Result 64.7

---

target: UniProtKB A0A484HRI4; test: Competitive fluorescence-quenching assay, Cav p 1.0201; type: binding, guinea pig; conditions: 5 μM Cav p 1.0201-1-AMA complex, 50 μM ligand, n = 2
Measurement Kind: inhibition at 50 µM (%)
Report only the number, with the unit % understood.

## Task Would you kindly share the measured inhibition at 50 µM for `CC(C)=CCC/C(C)=C/CC/C(C)=C/CO` ?
## Result 95.5

## Task Would you kindly repeat that for `CCCCCCCCCCCCO` ?
## Result 97

## Task # repeat for `CCCc1ccc(O)cc1`
## Result 57

## Task What would you report for `CC(C)c1cccc(O)c1` ?
## Result 75.7

## Task Continue with `CCCCCCCCCCO`
## Result 98.2

## Task Would you mind doing CC(C)CCCC(C)CCO (stereo not shown) as well?
## Result 80.3

## Task Another compound to look at: `CCCCCCCCO`
## Result 82.1

---

target: Fel d 4 (Felis catus, UniProt Q5VFH6); construct: polyhistidine tag (C); assay: Fluorochrome binding to Fel d 4 (emission spectra and titration); conditions: 5 μM Fel d 4; read-out: EC50 fluorochrome concentration
Sequence (Q5VFH6 16-186): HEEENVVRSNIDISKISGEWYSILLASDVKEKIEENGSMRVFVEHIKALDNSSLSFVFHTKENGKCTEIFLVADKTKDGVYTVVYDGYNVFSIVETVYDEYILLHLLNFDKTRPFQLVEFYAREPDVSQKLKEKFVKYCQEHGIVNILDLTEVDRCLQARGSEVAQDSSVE
Measurement Kind: EC50
Record the result as a number with its unit.

## Task Reported EC50 for `c1ccc(Nc2cccc3ccccc23)cc1` : what is it?
## Result 28 µM
